Each recorded value in this set is attributed to paper PMC11079024.

Target: B. taurus (heart) complex I (Bos taurus, UniProt P03887+P17694+P42026)
Sequence (P03887 whole entry): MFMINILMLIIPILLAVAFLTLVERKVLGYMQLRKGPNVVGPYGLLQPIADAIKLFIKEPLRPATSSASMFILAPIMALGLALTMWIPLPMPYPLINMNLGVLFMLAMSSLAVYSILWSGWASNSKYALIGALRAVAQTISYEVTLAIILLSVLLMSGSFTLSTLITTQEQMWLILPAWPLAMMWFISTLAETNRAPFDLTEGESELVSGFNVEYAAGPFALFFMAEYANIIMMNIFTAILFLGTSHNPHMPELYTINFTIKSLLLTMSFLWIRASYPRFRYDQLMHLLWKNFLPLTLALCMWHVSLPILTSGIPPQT
Sequence (P17694 34-463): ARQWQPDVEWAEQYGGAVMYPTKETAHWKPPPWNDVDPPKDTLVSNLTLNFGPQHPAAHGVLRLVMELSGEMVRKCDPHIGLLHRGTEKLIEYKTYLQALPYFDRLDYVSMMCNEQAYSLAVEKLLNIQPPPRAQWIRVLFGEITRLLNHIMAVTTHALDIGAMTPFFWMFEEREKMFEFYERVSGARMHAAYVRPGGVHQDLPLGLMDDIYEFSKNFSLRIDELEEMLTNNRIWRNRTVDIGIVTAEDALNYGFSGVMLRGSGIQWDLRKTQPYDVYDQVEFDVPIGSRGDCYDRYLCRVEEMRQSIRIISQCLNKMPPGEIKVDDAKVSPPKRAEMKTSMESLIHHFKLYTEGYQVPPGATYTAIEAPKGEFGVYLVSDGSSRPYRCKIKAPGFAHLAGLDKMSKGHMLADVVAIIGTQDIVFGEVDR
Sequence (P42026 38-216): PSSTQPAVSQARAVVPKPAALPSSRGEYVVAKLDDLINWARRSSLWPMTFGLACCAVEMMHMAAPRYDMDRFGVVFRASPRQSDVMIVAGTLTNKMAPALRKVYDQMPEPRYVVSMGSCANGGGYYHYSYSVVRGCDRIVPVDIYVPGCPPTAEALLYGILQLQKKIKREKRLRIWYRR
Assay: biochemical
Type: biochemical
Settings: Dose 0.001 µM; read-out: B. taurus mitochondrial complex I activity

# Compound, activity at 0.001 µM (%)
rows = [
    ("Clc1ccccc1OCCCCn1cnc2ccccc21 [Compound 7925804]", 117),
    ("Cc1ccc(OCCn2cnc3ccccc32)cc1 [Compound 5671538]", 95.2),
    ("Cc1cccc(OCCn2c(C)nc3ccccc32)c1 [Compound 6285199]", 100),
    ("Clc1ccc(OCCn2cnc3ccccc32)c(Cl)c1 [Compound 7221649]", 89.7),
    ("Nc1nc2ccccc2n1CCOc1ccc(Br)cc1 [Compound 5842535]", 90.7),
    ("Cc1ccc(SCCCn2cnc3ccccc32)cc1 [Compound 7926035]", 99.3),
    ("FC(F)(F)c1cccc(OCCCCn2cnc3ccccc32)c1 [Compound 7925004]", 90.6),
    ("Cc1ccc(OCCn2cnc3ccccc32)c(C)c1 [Compound 7706808]", 99.1),
]

---

// values below are reported activity at 0.0001 µM
Biological target: C. elegans (N2) complex I (NADH:ubiquinone oxidoreductase) (Caenorhabditis elegans, UniProt P24887+Q93873+Q94360)
Sequence (Q94360 17-199): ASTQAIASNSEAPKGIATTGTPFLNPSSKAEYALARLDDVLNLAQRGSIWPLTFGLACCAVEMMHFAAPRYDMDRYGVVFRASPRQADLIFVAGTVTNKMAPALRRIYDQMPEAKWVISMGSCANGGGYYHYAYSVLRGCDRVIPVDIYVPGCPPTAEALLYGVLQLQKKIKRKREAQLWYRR
Sequence (P24887 whole entry): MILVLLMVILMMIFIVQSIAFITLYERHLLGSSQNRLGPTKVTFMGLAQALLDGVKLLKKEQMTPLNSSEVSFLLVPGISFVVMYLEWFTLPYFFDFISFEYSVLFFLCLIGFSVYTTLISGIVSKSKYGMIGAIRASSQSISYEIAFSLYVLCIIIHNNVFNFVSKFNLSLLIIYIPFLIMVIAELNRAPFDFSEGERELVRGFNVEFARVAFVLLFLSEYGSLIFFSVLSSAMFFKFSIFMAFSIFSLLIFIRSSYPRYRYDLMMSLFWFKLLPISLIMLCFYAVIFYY
Sequence (Q93873 31-482): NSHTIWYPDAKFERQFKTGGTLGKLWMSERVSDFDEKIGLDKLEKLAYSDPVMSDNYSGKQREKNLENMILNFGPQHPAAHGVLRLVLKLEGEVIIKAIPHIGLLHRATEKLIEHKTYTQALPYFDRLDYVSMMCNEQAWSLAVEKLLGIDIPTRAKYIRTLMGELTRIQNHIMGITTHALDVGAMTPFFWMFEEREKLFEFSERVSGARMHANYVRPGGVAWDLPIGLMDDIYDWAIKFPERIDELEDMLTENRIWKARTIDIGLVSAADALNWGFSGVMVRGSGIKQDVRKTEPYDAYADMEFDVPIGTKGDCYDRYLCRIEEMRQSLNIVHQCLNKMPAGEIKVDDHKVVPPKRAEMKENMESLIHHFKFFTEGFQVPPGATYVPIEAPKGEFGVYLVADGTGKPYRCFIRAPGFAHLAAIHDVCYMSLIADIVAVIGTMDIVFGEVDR
Assay: biochemical
Assay type: biochemical
Conditions: Dose 0.0001 µM; read-out: C. elegans mitochondrial complex I activity
Experimental: Mitochondria were isolated from the following free-living nematode strains: C. elegans—N2, CB3474, ECA882, ECA917, ECA1075, ECA1080; C. briggsae—AF16; P. pacificus—PS312; and P. hermaphrodita—B178. With the exception of the P. hermaphrodita strain B178, adult worms of each strain were grown in bulk through liquid culture to obtain mitochondria in sufficient quantities. […]

# Smiles representation, activity at 0.0001 µM, %
measured = [
    ("Clc1ccc(Cn2cnc3ccccc32)c(Cl)c1", 89.4),
    ("FC(F)(F)c1cccc(OCCCCn2cnc3ccccc32)c1", 115),
    ("Cc1ccc(CSCc2nc3ccccc3[nH]2)cc1", 100),
    ("CCc1cc(OCCn2cnc3ccccc32)ccc1Cl", 89.3),
    ("Cc1nc2ccccc2n1CCOc1ccccc1", 88.8),
    ("Cc1ccc(OCCn2cnc3ccccc32)c(C)c1", 101),
    ("Cc1ccc(SCCCn2cnc3ccccc32)cc1", 90.2),
    ("Clc1ccc(Cn2cnc3ccccc32)cc1Cl", 90.4),
    ("CC(C)Oc1cccc(OCCn2cnc3ccccc32)c1", 80),
    ("Clc1ccccc1OCCCCn1cnc2ccccc21", 95.7),
]

---

Molecular target: C. elegans (N2) complex I (NADH:ubiquinone oxidoreductase) (Caenorhabditis elegans, UniProt P24887+Q93873+Q94360)
Assay: biochemical
Assay type: biochemical
Details: Dose 75 µM; read-out: C. elegans mitochondrial complex I activity

# Compound, activity at 75 µM
data = [
    ("Cc1nc2ccccc2n1CCOc1ccccc1 [Compound 5550112]", "5.83%"),
    ("Cc1cccc(OCCn2c(C)nc3ccccc32)c1 [Compound 6285199]", "1.88%"),
    ("CCCn1c(COc2ccc(C)cc2)nc2ccccc21 [Compound 6944471]", "64.7%"),
    ("FC(F)(F)c1cccc(OCCCCn2cnc3ccccc32)c1 [Compound 7925004]", "1.4%"),
    ("Nc1nc2ccccc2n1Cc1ccc(Cl)cc1 [Compound 5652765]", "0.75%"),
]
